Parameter: log10 of EC50. Scope: all listed entries.
Biological target: PPARγ-RXRα heterodimer (Homo sapiens)
Sequence (P37231 whole entry): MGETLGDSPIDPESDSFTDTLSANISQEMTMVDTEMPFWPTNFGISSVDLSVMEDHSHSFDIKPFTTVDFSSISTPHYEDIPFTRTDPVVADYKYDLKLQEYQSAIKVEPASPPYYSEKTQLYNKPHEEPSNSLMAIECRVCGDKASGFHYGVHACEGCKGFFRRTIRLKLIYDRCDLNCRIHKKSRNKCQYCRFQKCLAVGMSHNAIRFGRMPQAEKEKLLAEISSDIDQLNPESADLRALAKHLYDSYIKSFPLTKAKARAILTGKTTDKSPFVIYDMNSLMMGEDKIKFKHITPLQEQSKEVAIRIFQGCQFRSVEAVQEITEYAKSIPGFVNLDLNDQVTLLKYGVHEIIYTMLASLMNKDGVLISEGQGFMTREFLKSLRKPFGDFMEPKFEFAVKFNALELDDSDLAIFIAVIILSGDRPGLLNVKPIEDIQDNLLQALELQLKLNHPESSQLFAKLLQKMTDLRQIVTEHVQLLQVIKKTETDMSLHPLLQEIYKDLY
Sequence (P19793 whole entry partner): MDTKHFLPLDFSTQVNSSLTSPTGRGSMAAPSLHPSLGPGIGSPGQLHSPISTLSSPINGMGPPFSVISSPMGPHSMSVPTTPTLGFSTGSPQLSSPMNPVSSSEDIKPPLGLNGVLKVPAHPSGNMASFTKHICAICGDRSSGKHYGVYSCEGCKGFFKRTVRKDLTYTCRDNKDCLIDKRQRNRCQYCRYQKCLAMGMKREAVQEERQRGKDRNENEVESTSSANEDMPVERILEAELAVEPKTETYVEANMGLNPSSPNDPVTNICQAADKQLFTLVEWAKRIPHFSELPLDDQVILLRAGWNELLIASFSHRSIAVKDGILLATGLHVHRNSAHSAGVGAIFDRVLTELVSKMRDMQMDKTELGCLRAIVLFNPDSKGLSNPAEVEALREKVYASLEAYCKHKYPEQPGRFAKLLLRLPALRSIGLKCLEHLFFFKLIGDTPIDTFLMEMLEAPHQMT
Assay: PPARγ-RXRα heterodimer ligand activity (luciferase reporter assay in PPARγ:RXRα:4ERPP/CHO-K1 cells)
Details: incubated one day with test compound, luciferase induction rate, compound concentration showing 50% of the maximum value of induction rate
Note: values are log10 of EC50 expressed in nM.

Query CCCCCS(=O)(=O)NC(=O)/C=C/c1c(C)nn(C)c1-c1cccc2cccnc12 yields log10 of EC50 of 1.73

Query CCCCOC(=O)NS(=O)(=O)CCc1c(C(F)(F)F)nn(C)c1-n1ccc2cc(Cl)cnc21 yields log10 of EC50 of 1.93

Query Cc1nn(C)c(-n2ccc3cc(Cl)cnc32)c1/C=C/C(=O)NS(=O)(=O)NCC1CC1 yields log10 of EC50 of 1.41

Query CCCCNS(=O)(=O)NC(=O)/C=C/c1c(C)nn(C)c1-n1ccc2cc(Cl)ccc21 yields log10 of EC50 of 1.38

Query CCCCCS(=O)(=O)NC(=O)/C=C/c1c(C)nn(C)c1-n1ccc2cc(Cl)ccc21 yields log10 of EC50 of 0.79

Further cases:
Query Cc1ccc(S(=O)(=O)NC(=O)/C=C/c2c(C)nn(C)c2-n2ccc3cccnc32)cc1 yields log10 of EC50 of 1.94

Query CCCCS(=O)(=O)NC(=O)/C=C/c1c(C)nn(C)c1-n1ccc2cc(Cl)cnc21 yields log10 of EC50 of 1.15

Query CCCCCS(=O)(=O)NC(=O)/C=C/c1c(C)nn(C)c1-n1ccc2ccc(C(F)(F)F)cc21 yields log10 of EC50 of 0.74

Query CCCCNC(=O)NS(=O)(=O)CCc1c(C2CC2)nn(C)c1-n1ccc2cc(Cl)cnc21 yields log10 of EC50 of 1.78

Query CCCCCS(=O)(=O)NC(=O)CCc1c(C)nn(C)c1N1CCc2cccnc21 yields log10 of EC50 of 1.08

Query CCCCCS(=O)(=O)NC(=O)/C=C/c1c(C)nn(C)c1-n1ccc2ccccc21 yields log10 of EC50 of 1.59

Query CCCCNC(=O)NS(=O)(=O)CCc1c(C)nn(C)c1-n1ccc2cc(C(F)(F)F)cnc21 yields log10 of EC50 of 1.51

Query CCCCCS(=O)(=O)NC(=O)/C=C/c1c(C)nn(C)c1-n1ccc2cc(C)cnc21 yields log10 of EC50 of 1.18

Query CCCCCS(=O)(=O)NC(=O)NCCCc1c(C)nn(C)c1-n1ccc2cc(Cl)ccc21 yields log10 of EC50 of 1.83

Query CCCCOC(=O)NS(=O)(=O)CCc1c(C)nn(C)c1-n1ccc2cc(C(F)(F)F)cnc21 yields log10 of EC50 of 1.34

Query CCCCCS(=O)(=O)NC(=O)/C=C/c1c(C)nn(C)c1-n1ccc2cccnc21 yields log10 of EC50 of 1.81
